measurement_label: melting point (°C)
Answer with a number only, understood to be in °C.

// query Name the reported melting point value associated with the compound CC=Cc1cc2c(c(=O)o1)C(=O)C(O)C(C)O2 (centres undefined)
// result 222

// query Name the reported melting point value associated with the compound COC(=O)c1ccc2c(c1)CC1(CCC(c3ccc(C(C)(C)C)cc3)CC1)C2 (centres undefined)
// result 118

// query Name the reported melting point value associated with the compound O=Cc1ccc([N+](=O)[O-])cc1[N+](=O)[O-]
// result 72

// query Name the reported melting point value associated with the compound CC(=O)N(C(C)=O)c1ccccc1
// result 37.5

// query Name the reported melting point value associated with the compound C=C(C)CCCCCCCCCCCCCCCCC
// result 20

// query Name the reported melting point value associated with the compound COc1cc(Cl)c(OC)cc1Cl
// result 134

// query Name the reported melting point value associated with the compound O=C1CCCN1c1ccccc1
// result 66

// query Name the reported melting point value associated with the compound CCCCCCCCCCOC(=O)c1ccccc1C(=O)OCCCCCC
// result -4

// query Name the reported melting point value associated with the compound Cc1cccc(C)c1NC1=NCCCS1
// result 140

// query Name the reported melting point value associated with the compound CCCCCCCNCCCCCCC
// result 31.5

// query Name the reported melting point value associated with the compound O=C(Nc1ccc(Cl)cc1)c1cc(Cl)cc(Cl)c1O
// result 142

// query Name the reported melting point value associated with the compound O=C(Cl)c1cc(I)ccc1F
// result 29

// query Name the reported melting point value associated with the compound CC(C)(C)OC(=O)N[C@@H](CC(=O)O)c1ccc(Br)cc1
// result 144

// query Name the reported melting point value associated with the compound CN(C)CCCN1c2ccccc2S(=O)c2ccc(Cl)cc21 (centres undefined)
// result 115

// query Name the reported melting point value associated with the compound ClC1=C(Cl)C(Cl)(Cl)C(Cl)=C1Cl
// result -9

// query Name the reported melting point value associated with the compound CC(Oc1ccc(Oc2nc3ccc(Cl)cc3o2)cc1)C(=O)O (centres undefined)
// result 158

// query Name the reported melting point value associated with the compound CC(C)=CCCC(C)=CC=CC(C)=CC=CC(C)=CC=CC=C(C)C=CC=C(C)C=CC1=C(C)CCCC1(C)C
// result 178

// query Name the reported melting point value associated with the compound Oc1ccc(C(O)(c2ccccc2)c2ccc(O)c3ccccc23)c2ccccc12
// result 232

// query Name the reported melting point value associated with the compound O=C(OCc1ccccc1Br)ON1C(=O)CCC1=O
// result 107

// query Name the reported melting point value associated with the compound Cc1c(C(C)C2NCC(C)CC2O)ccc2c1CC1C2CC=C2CC(O)CCC21C (centres undefined)
// result 206

// query Name the reported melting point value associated with the compound C1CCCCCCCCCCCCC1
// result 54

// query Name the reported melting point value associated with the compound Cc1cc(O)cc(C)c1C
// result 106

// query Name the reported melting point value associated with the compound O=[N+]([O-])c1ccc(-c2nnc3n2NC(c2ccc([N+](=O)[O-])cc2)S3)cc1 (centres undefined)
// result 229

// query Name the reported melting point value associated with the compound CCCc1nn(C)c2c(=O)nc(-c3cc(S(=O)(=O)N4CCN(C)CC4)ccc3OCC)[nH]c12
// result 190

// query Name the reported melting point value associated with the compound Clc1ccc(C(Cl)(Cl)Cl)cc1
// result 5.8

// query Name the reported melting point value associated with the compound NC(=O)c1ccccn1
// result 106

// query Name the reported melting point value associated with the compound Cn1c(/C(C#N)=N/Nc2ccc([N+](=O)[O-])cc2)nc2ccccc21
// result 238

// query Name the reported melting point value associated with the compound O=C(O)c1cc(Oc2ccc(C(F)(F)F)cc2Cl)ccc1[N+](=O)[O-]
// result 155

// query Name the reported melting point value associated with the compound CC(C)(C(N)=O)n1nnc2ccccc21
// result 187

// query Name the reported melting point value associated with the compound Nc1nc(-c2ccc3ccccc3c2)cs1
// result 155

// query Name the reported melting point value associated with the compound O=[N+]([O-])c1ccccc1C(Cl)C(Cl)c1ccccn1 (centres undefined)
// result 144

// query Name the reported melting point value associated with the compound CC12CCC(C(=O)C1)C2(C)C (centres undefined)
// result 186

// query Name the reported melting point value associated with the compound OCC(CO)(CBr)CBr
// result 113

// query Name the reported melting point value associated with the compound COc1ccccc1/C=C(\C#N)c1nc2ccccc2s1
// result 158

====

Response key: Y means melting point >= 100 °C; N means melting point < 100 °C.

// query Would you say CC(=CC(=O)O)C1CCCCC1 shows melting point at minimum 100 °C?
// result N

// query Would you say Cc1ccccc1NN=C1C(=O)OC(C)(C)OC1=O shows melting point at minimum 100 °C?
// result Y

// query Would you say COc1c2ccoc2cc2oc(COC3OC(CO)C(O)C(O)C3O)cc(=O)c12 (stereo unspecified) shows melting point at minimum 100 °C?
// result Y

// query Would you say c1ccc2c(N=Nc3cccc4ccccc34)cccc2c1 shows melting point at minimum 100 °C?
// result Y

// query Would you say CCCCCCCF shows melting point at minimum 100 °C?
// result N

// query Would you say COc1ccc2c(=O)c3ccccc3oc2c1CN1CCCCC1 shows melting point at minimum 100 °C?
// result Y

// query Would you say Nc1ccc2c(c1)COCO2 shows melting point at minimum 100 °C?
// result N

// query Would you say COc1cc(C(=O)Nc2ccc3nn(C4CCCCC4)nc3c2)cc(OC)c1OC shows melting point at minimum 100 °C?
// result Y

// query Would you say CCCCC(=O)NC shows melting point at minimum 100 °C?
// result N

// query Would you say O=C1C(Cl)=C(Cl)C(=O)C(NCc2ccccc2)=C1Cl shows melting point at minimum 100 °C?
// result Y

// query Would you say CNc1nc(NC(C)C)nc(SC)n1 shows melting point at minimum 100 °C?
// result N

// query Would you say C#CCCCCCCCCC(=O)O shows melting point at minimum 100 °C?
// result N

// query Would you say CCOC(=O)C1=C(C)NC(=O)NC1c1cccc(Cl)c1Cl (stereo unspecified) shows melting point at minimum 100 °C?
// result Y

// query Would you say N#Cc1cc([N+](=O)[O-])cc([N+](=O)[O-])c1 shows melting point at minimum 100 °C?
// result Y

// query Would you say CC(C)(C)OC(=O)NC(CI)C(=O)OCc1ccccc1 (stereo unspecified) shows melting point at minimum 100 °C?
// result N

// query Would you say Brc1cccc2c1Oc1cccc(Br)c1O2 shows melting point at minimum 100 °C?
// result Y

====

Kindly apply the following: criterion met if melting point is less than 70 °C, criterion not met in every other case.

// query Hello, is melting point of the following molecule strictly smaller than 70 °C? COc1ccc(C(=O)O)c(C(F)(F)F)c1
// result criterion not met

// query Hello, is melting point of the following molecule strictly smaller than 70 °C? O=C(O)CCCCCCCCCCO
// result criterion met

// query Hello, is melting point of the following molecule strictly smaller than 70 °C? O=Cc1cccc2ncccc12
// result criterion not met

// query Hello, is melting point of the following molecule strictly smaller than 70 °C? CCSC(C)C
// result criterion met

// query Hello, is melting point of the following molecule strictly smaller than 70 °C? Cc1ccccc1N1CSc2nnc(-c3cccnc3)n2C1
// result criterion not met

// query Hello, is melting point of the following molecule strictly smaller than 70 °C? CCOC1OC(=O)c2c(OC)cccc21 (centres undefined)
// result criterion met

// query Hello, is melting point of the following molecule strictly smaller than 70 °C? FC(Cl)(Cl)C(Cl)Cl
// result criterion met

// query Hello, is melting point of the following molecule strictly smaller than 70 °C? C=C(C)C(=O)OC1CC2CCC1(C)C2(C)C (centres undefined)
// result criterion met

// query Hello, is melting point of the following molecule strictly smaller than 70 °C? N#CC(=Cc1ccccc1)C(N)=O
// result criterion not met

====

Exercise: for every item that follows, state its recorded melting point.
Answer with a number only, understood to be in °C.

// query Name the reported melting point value associated with the compound O=[N+]([O-])c1cc(S(=O)(=O)Nc2ccccc2)ccc1Nc1ccccc1
// result 156

// query Name the reported melting point value associated with the compound N#CC1(C#N)C2COC(C3=C2CCCC3)C1(C#N)C#N (configuration not stated)
// result 173

// query Name the reported melting point value associated with the compound CC(C)(C)c1nn(-c2ccccc2)c(N)c1Cn1nnc2ccccc21
// result 124

// query Name the reported melting point value associated with the compound Clc1ccnc2ccccc12
// result 34.5

// query Name the reported melting point value associated with the compound CC(=O)OCC1OC(c2nn[nH]n2)C(N2C(=O)c3ccccc3C2=O)C(OC(C)=O)C1OC(C)=O (configuration not stated)
// result 98

// query Name the reported melting point value associated with the compound CS(=O)(=O)Cc1ccccc1
// result 126

// query Name the reported melting point value associated with the compound C1=NN(c2ccccc2)CC1
// result 52

// query Name the reported melting point value associated with the compound CC(=O)c1c(C)c(C)cc(C)c1C
// result 75
